biological target: T1, PD1-his (Catalog Number 10377-H08H, Sino Biological Inc.) (UniProt Q15116 25-167); test: ELISA, 1 ug/ml
T1 construct: bought protein; not shown: His tag
T1 sequence (Q15116 25-167 limits assumed): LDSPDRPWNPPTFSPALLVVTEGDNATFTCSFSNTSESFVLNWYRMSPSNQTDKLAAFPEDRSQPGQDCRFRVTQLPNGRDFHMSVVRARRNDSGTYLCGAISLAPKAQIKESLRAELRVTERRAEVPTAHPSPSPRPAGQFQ
Quick reference: OD490 of the listed items.

Known results for binders:
| Binder | Assay value |
| --- | --- |
| PD1-41C9 (antibody, V domains shown, scFv-phage in the screening ELISA; whole IgG in the other assays) VH: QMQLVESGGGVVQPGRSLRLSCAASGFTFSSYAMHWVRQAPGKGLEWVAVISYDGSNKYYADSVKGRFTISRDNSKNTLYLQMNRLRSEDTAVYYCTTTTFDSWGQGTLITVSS VL: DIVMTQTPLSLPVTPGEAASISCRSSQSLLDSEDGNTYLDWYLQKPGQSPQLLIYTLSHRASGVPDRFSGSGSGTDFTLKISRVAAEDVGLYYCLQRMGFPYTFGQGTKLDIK | 3.2 |
| PD1-45D6 (antibody, V domains shown, scFv-phage in the screening ELISA; whole IgG in the other assays) VH: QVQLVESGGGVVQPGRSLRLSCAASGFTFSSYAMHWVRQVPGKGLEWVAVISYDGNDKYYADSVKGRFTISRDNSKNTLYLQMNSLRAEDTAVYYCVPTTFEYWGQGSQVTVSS VL: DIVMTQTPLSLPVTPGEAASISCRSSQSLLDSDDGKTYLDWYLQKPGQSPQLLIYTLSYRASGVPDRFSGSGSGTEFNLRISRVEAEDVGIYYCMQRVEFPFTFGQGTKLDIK | 3.8 |
| PD1-52E8 (antibody, V domains shown, scFv-phage in the screening ELISA; whole IgG in the other assays) VH: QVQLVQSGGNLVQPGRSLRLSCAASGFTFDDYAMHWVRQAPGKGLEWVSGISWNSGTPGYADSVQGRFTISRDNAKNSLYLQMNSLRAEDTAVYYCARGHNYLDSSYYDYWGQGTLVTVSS VL: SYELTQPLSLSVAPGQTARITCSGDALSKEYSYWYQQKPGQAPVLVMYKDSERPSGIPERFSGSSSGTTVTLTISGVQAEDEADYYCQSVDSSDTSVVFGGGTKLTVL | 0.4 |

Reported OD490 for PD1-49A2 (antibody, V domains shown, scFv-phage in the screening ELISA; whole IgG in the other assays; also called Parent 49A2) VH: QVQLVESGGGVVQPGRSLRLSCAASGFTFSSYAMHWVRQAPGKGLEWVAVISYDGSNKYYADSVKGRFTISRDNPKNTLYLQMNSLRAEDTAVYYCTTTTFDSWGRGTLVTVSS VL: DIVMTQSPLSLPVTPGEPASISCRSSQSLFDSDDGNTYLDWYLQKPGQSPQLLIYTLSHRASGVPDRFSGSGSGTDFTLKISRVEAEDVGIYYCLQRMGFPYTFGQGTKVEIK : what is it?
3.6
